- system-name: T1, human CD38 on transiently transfected Expi293 cells (Origene #SC321273) (human, UniProt P28907 1-300)
- T1 construct: whole, on cells; also called Human (FACs)
- test-method-notes: flow cytometry, transfected Expi293 cells;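 also: antibody binding to Expi293 cells transiently expressing human or murine CD38, antibodies applied at 10 ug/ml for 60 min on ice, read by flow cytometry as percent gated cells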
measurement-kind: FACs 10 ug/ml (percent gated) (%)
Could you give me the number in %? Just the number is fine.

Specify FACs 10 ug/ml (percent gated) for 40566p1.C1 (scFv, V domains shown, tested as scFv-Fc supernatant) VH: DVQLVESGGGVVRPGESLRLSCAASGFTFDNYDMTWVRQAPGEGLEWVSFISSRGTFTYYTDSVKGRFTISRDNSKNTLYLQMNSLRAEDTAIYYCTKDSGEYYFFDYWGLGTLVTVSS VL: ETVMTQSPATLSVSPGERATFSCRASQSVNSKLAWYQQKPGQAPRLLIYGASRRATGIPDRFSGSGSGTEFTLTISSLQSEDFAVYYCQQYYDWPPLTFGGGTKVEIK and stop.
26.4

Specify FACs 10 ug/ml (percent gated) for 40566p1.A12 (scFv, V domains shown, tested as scFv-Fc supernatant; also called 40566p1.Al2) VH: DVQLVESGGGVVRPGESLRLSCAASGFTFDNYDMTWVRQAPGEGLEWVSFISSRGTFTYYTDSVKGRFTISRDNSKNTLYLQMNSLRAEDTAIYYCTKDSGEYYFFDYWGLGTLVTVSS VL: EIVMTQSPATLSVSPGERATFSCRASQSVNSKLAWYQQKPGQAPRLLIYDASRRATGIPDRFSGSGSGTEFTLTISSLQSEDFAVYYCQQYYDWPPLTFGGGTKVEIK and stop.
25.2
